src = PubChem BioAssay AID248

test system: L1210 leukemia ip in BDF1 mice, survival T/C; assay: NCI In Vivo Anticancer Drug Screen. Data for tumor model L1210 Leukemia (intraperitoneal) in B6D2F1 (BDF1) mice; details: endpoint: mean survival time; dose: 400.0 mg/kg/injection; schedule: Q04DX003 (ip); vehicle: saline; higher = longer survival
Toxic doses and inconclusive results are not listed.
Metric: T/C

// known answers, use as guide
INSERT INTO measurements (molecule, metric, assay_value) VALUES
  ('COc1cccc(OC)c1-c1oc2ccccc2c(=O)c1O', 'T/C', '94 % of control'),
  ('C[Si](C)(CCl)c1ccccc1', 'T/C', '100 % of control'),
  ('O=C(O)CSC(=S)c1ccccc1', 'T/C', '97 % of control'),
  ('COc1ccc(C(=O)CSc2cc[o+]cc2)cc1', 'T/C', '97 % of control');

Let us examine a further case.
Q) Any idea what its T/C is? The molecule is COc1ccc(C(Br)C(Br)C(=O)c2ccc3c(c2)OCO3)cc1OC (stereo not given)
A) 98 % of control

* * *

system: L1210 leukemia ip in BDF1 mice, survival T/C; experiment: NCI In Vivo Anticancer Drug Screen. Data for tumor model L1210 Leukemia (intraperitoneal) in B6D2F1 (BDF1) mice; conditions: endpoint: mean survival time; dose: 200.0 mg/kg/injection; schedule: Q01DX009 (ip); vehicle: Klucel (hydroxypropylcellulose) (HPC); higher = longer survival
Inconclusive results and toxic doses are left out.
Kindly state T/C for each of the entries shown.

// known answers, use as guide
INSERT INTO results (compound, metric, assay_value) VALUES
  ('O=C(COc1ccc(Cl)cc1Cl)OCCOCCOCCOCCOCCOCCOCCOCCOCCOCCOCCOCCOCCO', 'T/C', '101 % of control'),
  ('CCc1oc2cc([N+](=O)[O-])ccc2c1C(OC(C)=O)OC(C)=O', 'T/C', '105 % of control');

For each listed entry, give its T/C.
1. NC(=O)C1CCCC12NC(=O)NC2=O (configuration not stated)
2. COc1ccc(NC(=O)NC(C)(C)C)c(OC)c1
3. CC(=O)C1CC(CC(=O)O)C1(C)C (configuration not stated)

A)
1. 94 % of control
2. 100 % of control
3. 97 % of control

For each listed entry, give its T/C.
1. CCOC(=O)c1cnc(SC)nc1Nc1cccc([N+](=O)[O-])c1
2. CC1=CC(=O)CC(=O)O1

A)
97 % of control
94 % of control

* * *

tested on: L1210 leukemia ip in BDF1 mice, survival T/C; assay: NCI In Vivo Anticancer Drug Screen. Data for tumor model L1210 Leukemia (intraperitoneal) in B6D2F1 (BDF1) mice; conditions: endpoint: mean survival time; dose: 400.0 mg/kg/injection; schedule: Q04DX003 (ip); vehicle: Klucel (hydroxypropylcellulose) (HPC); higher = longer survival
Inconclusive results and toxic doses are left out.
Kindly state T/C for each of the entries shown.

// known answers, use as guide
INSERT INTO results (compound, assay_value) VALUES
  ('CC(=O)OC1C=CN(C(C)=O)C(SC23CC4CC(CC(C4)C2)C3)C1OC(C)=O (configuration not stated)', '92 % of control'),
  ('Cc1ccc(NC(=O)c2ccc(Cl)cc2Cl)cc1C', '94 % of control'),
  ('NC1=NC2OC(CO)C(O)C2O1 (configuration not stated)', '97 % of control');

For each listed entry, give its T/C.
1. CC(C)(C)C(O)C1CCC(C(O)C(C)(C)C)S1(=O)=O (configuration not stated)
2. CCSc1nc(=S)cc(C)[nH]1
3. O=C(Nc1ccc(F)c(Cl)c1)Oc1cc(=O)oc2ccccc12
4. O=C(NC1CCCCC1)c1ccccc1
5. Cc1ccccc1C(Cc1ccc(N2C(N)=NC(N)=NC2(C)C)cc1)C(=O)Nc1ccc(S(=O)(=O)F)cc1 (configuration not stated)
6. CS(=O)(=O)OC1CCCCC1Sc1ccc(Br)cc1 (configuration not stated)
7. O=c1cc(-c2ccccc2)oc(-c2ccc(Cl)cc2)c1
8. CCOC(=O)c1cnc(SC)nc1Nc1cccc(Cl)c1

A)
["100 % of control", "87 % of control", "105 % of control", "96 % of control", "88 % of control", "106 % of control", "100 % of control", "88 % of control"]

Q) Any idea what its T/C is? The compound is O=[N+]([O-])c1ccccc1C=Nc1ccccc1O
A) 94 % of control

* * *

system: L1210 leukemia ip in BDF1 mice, survival T/C; test: NCI In Vivo Anticancer Drug Screen. Data for tumor model L1210 Leukemia (intraperitoneal) in B6D2F1 (BDF1) mice; conditions: endpoint: mean survival time; dose: 100.0 mg/kg/injection; schedule: Q04DX003 (ip); vehicle: saline with Tween-80; higher = longer survival
Toxic doses and inconclusive results are not listed.
Kindly state T/C for each of the entries shown.

// known answers, use as guide
INSERT INTO assay_data (molecule, metric, assay_value) VALUES
  ('COc1ccccc1/C=C/C(=O)c1ccccc1', 'T/C', '98 % of control'),
  ('CN(C)CC/C=C1\c2ccccc2CN(C)c2ccccc21', 'T/C', '94 % of control'),
  ('Fc1c(F)c(F)c(Oc2nc(Oc3c(F)c(F)c(F)c(F)c3F)nc(-c3ccccc3)n2)c(F)c1F', 'T/C', '92 % of control'),
  ('N#Cc1ccc(OCc2nc(N)nc(N)c2-c2ccc(Cl)cc2)cc1', 'T/C', '104 % of control');

For each listed entry, give its T/C.
1. O=C(CC(O)(C(F)(F)F)C(F)(F)F)c1cccs1
2. Cn1nnnc1/C(=C/c1ccccc1)C(=O)O
3. COc1cc([N+](=O)[O-])c2c(ccc[n+]2C)c1OC
4. COC(=O)CNC(=O)C(C)NC(=O)OCc1ccccc1 (stereo not drawn)
5. COC(=O)C1C2C=CC(CC2)C1(C)C(=O)OC (stereo not drawn)
6. CC(=O)Oc1ccc(Cl)cc1
7. COc1ccc(/C=N/n2c(=O)[nH]nc(C)c2=O)c(OC)c1OC
8. S=P(NC1CCCCC1)(NC1CCCCC1)NC1CCCCC1

A)
["98 % of control", "95 % of control", "98 % of control", "102 % of control", "95 % of control", "108 % of control", "112 % of control", "101 % of control"]

For each listed entry, give its T/C.
1. CC(=O)Nc1ccc([N+](=O)[O-])c(NC(C)=O)n1
2. O=C(O)CN1C(=O)C2C3C=CC(C3)C2C1=O (stereo not drawn)
3. CCCC(C)c1ccc(C(C)=O)cc1 (stereo not drawn)
4. O=[N+]([O-])c1cccc(C(O)CC(O)(C(F)(F)F)C(F)(F)F)c1 (stereo not drawn)
5. CC(N)CSC(=O)c1ccccc1 (stereo not drawn)
6. CCCCCSC(=O)C(N)=O
7. COc1cc(CCCc2ccc(O)c(=O)cc2)cc(OC)c1OC

A)
["101 % of control", "97 % of control", "91 % of control", "95 % of control", "100 % of control", "100 % of control", "111 % of control"]

For each listed entry, give its T/C.
1. CCOC(=O)c1ccc(NC(=O)CC(C)=O)cc1
2. O=C1OC(=O)C2C3C=CC(C12)C1C2C(=O)OC(=O)C2C31 (stereo not drawn)
3. O=C(O)c1cccc2cccc(C3SCCS3)c12

A)
1: 103 % of control; 2: 94 % of control; 3: 101 % of control

For each listed entry, give its T/C.
1. Cc1cc(OC(=O)Nc2c(C)cccc2C)cc(C)c1Cl
2. BrCC1CCCO1 (stereo not drawn)
3. CC(C)=CCC/C(C)=C/CN1C(=O)CC(C)=C(C)C1=O
4. Cn1nnnc1N/N=C(\Br)c1ccccc1
5. COc1cc(C(=O)O)ccc1N
6. CCOC(=O)CCCC(=O)N(CC(=O)OCC)Cc1ccccc1
7. CCOC(=O)C1=CC=CC1=O

A)
1: 91 % of control; 2: 101 % of control; 3: 95 % of control; 4: 104 % of control; 5: 102 % of control; 6: 102 % of control; 7: 102 % of control

For each listed entry, give its T/C.
1. O=C(Nc1ccc2cc(S(=O)(=O)O)ccc2c1)c1ccc(N=Nc2c(S(=O)(=O)O)cc3cc(S(=O)(=O)O)cc(NC(=O)c4ccccc4)c3c2O)cc1
2. N#CCCCCN1C(=O)c2ccccc2C1=O
3. c1cc2cccc3c2c(c1)c1sc2c4cccc5cccc(c54)c2c31
4. O=c1c(-c2ccccc2)coc2ccccc12
5. Cc1ccc(S(=O)(=O)Nc2c(C)c(Cl)c(C)c3ccccc23)cc1

A)
1: 104 % of control; 2: 98 % of control; 3: 101 % of control; 4: 97 % of control; 5: 94 % of control

For each listed entry, give its T/C.
1. O=C(NCCCCOc1ccc([N+](=O)[O-])cc1Cl)c1ccc(S(=O)(=O)F)cc1
2. C[S+]1Cc2ccccc2C1

A)
1. 92 % of control
2. 106 % of control

For each listed entry, give its T/C.
1. O=COC1CC2CC1C1CCCC21 (stereo not drawn)
2. Oc1c(Br)ccc2c(O)c(Br)ccc12
3. CCOC(=O)c1ccc(OC(=O)Nc2ccccc2)cc1
4. Nc1c(Br)cc2c(c1Br)Cc1cc([N+](=O)[O-])ccc1-2
5. N#Cc1cccc[n+]1Cc1ccc([N+](=O)[O-])cc1

A)
94 % of control
87 % of control
98 % of control
104 % of control
97 % of control

For each listed entry, give its T/C.
1. CC(=O)C1=C(c2ccccc2)NC(=O)NC1c1ccco1 (stereo not drawn)
2. CCCCN(CCO)C(C#CC(C)(C)O)C(C)C (stereo not drawn)

A)
1. 94 % of control
2. 95 % of control
